# assay_notes: NCI Yeast Anticancer Drug Screen. Data for the sgs1 mgt1 strain (AID 161);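 further: 0% = growth of cultures given vehicle only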
# condition_set: S. cerevisiae sgs1 mgt1 strain, at 5.0 µM (retest, dose inferred, filed as 0.5), hits give high values
Compounds without any hit were thinned out: in the full panel of roughly 79,000, 15% have a hit. The source made the active and inactive calls. No stated cut-off is given here; in the data, active means growth inhibition above about 70%; inactive means the rest.
experimental_endpoint: growth inhibition

> print(dat)
                                   molecule          result
1  CCC(=O)OC1CCC(C2CCCCC2)CC1 (stereo not given)   2% (inactive)
2  COc1cc(/C=C2/N=C(c3ccccc3)N(C3=NNC4(C(=O)N3)c3ccccc3-c3ccccc34)NC2=O)ccc1O   6% (inactive)
3          CN(C)CCCC(C#N)(CCCN(C)C)c1ccccc1   6% (inactive)
4  CCOC(=O)C1=C(C)NC(C)=C(C(=O)OCC)C1c1c(-c2ccccc2)noc1C  18% (inactive)

Now look at this entry.
*Q* Quickly give me recorded growth inhibition for CCOC(=O)C1(Br)CCN(S(=O)(=O)c2ccc(C)cc2)c2ccccc2C1=O (stereo not given)
*A* -7% (inactive)

Reference for the values: PubChem BioAssay (NCI)
